# pIC50 against MAGL (Homo sapiens), merged from multiple literature sources
pIC50: −log10 of the molar value.
PARAMETER_MEASURED: pIC50

- COMPOUND: "O=C1CO[C@H]2CCN(C(=O)N3CC([S+]([O-])c4ccc(C(F)(F)F)cc4Cl)C3)C[C@H]2N1 (single isomer, unassigned)"
  pIC50: 5.57
- COMPOUND: "O=C1CO[C@H]2CCN(C(=O)N3CC(c4ccc(S(F)(F)(F)(F)F)cc4)C3)C[C@H]2N1"
  pIC50: 8.05
- COMPOUND: "O=C1CO[C@H]2CCN(C(=O)N3CC(OCc4ccc(OC(F)F)cc4)C3)C[C@H]2N1"
  pIC50: 7.33

a = O=C1N[C@H](CCC(=O)N2CC(c3ccc(Oc4ccc(OC(F)(F)F)cc4)nc3)C2)CO1
b = O=C(c1cscn1)N1CCN(C2CN(C(=O)c3cccc(-c4ccccc4)c3F)C2)CC1
c = COc1cc(C(=O)N2CCN(c3nc4nc(C)ccc4o3)CC2)ccc1-c1cnn(CC(C)(C)C)n1
d = O=C1CO[C@H]2CCN(C(=O)N3CCC(OCc4ccc(C(F)(F)F)cc4F)(C(F)(F)F)C3)C[C@H]2N1 (stereo partly drawn)
e = Cn1nc(-c2ccc(F)cc2)c2cc(C(=O)N3CC(N[C@H]4CCN(C(=O)c5nccs5)C4)C3)ccc21
Please order the records by their reported pIC50, lowest number first. // rank by listing labels in the order requested
d, b, e, a, c

I = O=C(CCCc1cnn[nH]1)N1CC(OCc2ccc(C(F)(F)F)cc2F)C1
II = O=C1CCCC(CCC(=O)N2CC(OCc3ccc(C(F)(F)F)cc3F)C2)N1 (stereo not drawn)
Select one. Lower pIC50: I or II Please identify the chosen entry by its label.
II

====

# IC50 against MAGL (Homo sapiens, UniProt Q99685), merged from multiple literature sources
# Sequence (Q99685 whole entry, species assumed): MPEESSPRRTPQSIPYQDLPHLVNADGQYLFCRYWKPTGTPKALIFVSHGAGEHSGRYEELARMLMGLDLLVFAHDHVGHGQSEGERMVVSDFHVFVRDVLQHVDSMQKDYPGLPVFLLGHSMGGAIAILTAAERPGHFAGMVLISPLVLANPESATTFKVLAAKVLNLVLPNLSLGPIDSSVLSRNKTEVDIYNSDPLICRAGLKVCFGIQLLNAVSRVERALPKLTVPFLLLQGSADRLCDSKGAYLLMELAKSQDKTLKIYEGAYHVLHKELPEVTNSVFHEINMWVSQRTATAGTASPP
PARAMETER_MEASURED: IC50 (nM)

Some solved cases for reference:
- COMPOUND: "CC(C)(F)Cn1cc(-c2ccc(C(=O)N3CCN(c4nc5nc(Cl)ccc5o4)CC3)cc2)nn1"
  IC50 (nM): 49
- COMPOUND: "O=C(c1ccc2c(ccn2Cc2ccncc2)c1)N1CC(N2CCN(C(=O)c3nccs3)CC2)C1"
  IC50 (nM): 288

I = Cn1cc(-c2cccc(F)c2)c2ccc(C(=O)N3CC(N[C@H]4CCN(C(=O)c5ccccc5)C4)C3)cc21
II = C[C@H]1CN(C(=O)N2CC(OCc3ccc(C(F)(F)F)cc3F)C2)C[C@H]2NC(=O)CO[C@@H]12 (relative stereo)
III = Cc1ccc(-n2ccc3cc(C(=O)N4CC(N5CCN(C(=O)c6nccs6)CC5)C4)ccc32)cn1
IV = O=C(c1ccc(-c2cccc(C(F)(F)F)c2)cc1)N1CC(N2CCN(C(=O)c3ccc(Cl)o3)CC2)C1
V = Cc1cn(-c2cccc(F)c2)c2ccc(C(=O)N3CC(N4CCN(C(=O)c5ccccc5)CC4)C3)cc12
Rank the 5 compounds: largest IC50 first, smallest last. // rank by listing labels in the order requested
V, I, III, IV, II
(V: 104 nM, I: 63.9 nM, III: 13 nM, IV: 9 nM, II: 4.4 nM)

====

# IC50 against MAGL (Homo sapiens, UniProt Q99685), merged from multiple literature sources
PARAMETER_MEASURED: IC50 (nM)

Some solved cases for reference:
- COMPOUND: "Cc1nc2cc(C(=O)N3CC(C4CCN(C(=O)c5nccs5)CC4)C3)ccc2n1-c1ccc(F)c(F)c1"
  IC50 [nM]: 9.49
- COMPOUND: "Cc1nc2cc(C(=O)N3CC(N4CCN(C(=O)c5nccs5)CC4)C3)ccc2n1-c1ccc(F)c(F)c1"
  IC50 [nM]: 171
- COMPOUND: "O=C(c1ccc(OC(F)(F)F)c(Cl)c1)N1CC(N2CCN(C(=O)c3nccs3)CC2)C1"
  IC50 [nM]: 47

I = O=C1CO[C@H]2CCN(C(=O)N3CCC(C(c4ccccc4)c4cccnn4)CC3)C[C@H]2N1 (some centres unmarked)
II = O=C(c1ccc2[nH]c(-c3ccccc3)nc2c1)N1CC(N2CCN(C(=O)c3cscn3)CC2)C1
III = O=C1CO[C@H]2CCN(C(=O)N3CCC(C(OCC(F)(F)F)c4ccc(F)cc4)CC3)C[C@H]2N1 (single isomer, unassigned)
IV = O=C(c1ccc(Cc2cccc(C(F)(F)F)c2)cc1)N1CCC(C2CN(C(=O)c3nccs3)C2)CC1
Rank the 4 compounds: largest IC50 first, smallest last. // rank by listing labels in the order requested
II, I, IV, III

====

pIC50: −log10 of the molar value.
# pIC50 against MAGL (Homo sapiens), merged from multiple literature sources
PARAMETER_MEASURED: pIC50

- COMPOUND: "O=C1CO[C@H]2CCN(C(=O)N3CCC(C(c4ccc(F)cc4)c4ccc(OCCF)cc4)CC3)C[C@H]2N1 (single isomer, unassigned)"
  pIC50: 9.40

1 = Cc1cc(C(=O)N2CC(N3CCN(C(=O)c4cscn4)CC3)C2)cc2ccn(-c3ccc(F)cc3)c12
2 = O=C1CO[C@H]2CCN(C(=O)N3CC(OCc4ccc(F)cc4C(F)(F)F)C3)C[C@H]2N1
3 = O=C(c1ccccc1)N1CC[C@H](NC2CN(C(=O)c3sc4cc(C(F)(F)F)ccc4c3-c3ccccc3)C2)C1
Rank the 3 compounds: largest pIC50 first, smallest last. // rank by listing labels in the order requested
1, 2, 3
(1: 8.10, 2: 7.39, 3: 6.56)

====

# pIC50 against MAGL (Homo sapiens, UniProt Q99685), merged from multiple literature sources
pIC50: −log10 of the molar value.
PARAMETER_MEASURED: pIC50

I = O=C(c1ccc(-c2cccc(C(F)(F)F)c2)cc1)N1CC(C2CCN(C(=O)c3ccc[nH]3)CC2)C1
II = O=C1N[C@H](CCC(=O)N2CC(c3ccc(Oc4nccc(C(F)(F)F)n4)cc3)C2)CO1
Select one. Lower pIC50: I or II Please identify the chosen entry by its label.
II
(II: 5.75, I: 8.10)

I = O=C(N1CC(c2ccc(C3(C(F)(F)F)CC3)cc2)C1)N1C[C@H]2COc3cn[nH]c3[C@H]2C1
II = N#Cc1cc([C@@H]2CN3CCN(C(=O)c4cccc(-c5c[nH]nc5F)c4Cl)C[C@H]3CO2)ccc1F
III = O=C(c1cc2cc(Br)ccc2s1)N1CC(N[C@H]2CCN(C(=O)c3nccs3)C2)C1
Rank the 3 molecules: largest pIC50 first, smallest last. // rank by listing labels in the order requested
II, III, I

I = O=C(c1cccc(-c2c[nH]nc2F)c1)N1CCN2C[C@@](O)(c3ccc(F)c(F)c3)OC[C@@H]2C1
II = O=C(c1cccc(-c2c[nH]nc2F)c1Cl)N1CCN2C[C@](O)(c3ccc(Cl)cc3)CC[C@H]2C1
// compare measured pIC50, left I , right II , return larger Please identify the chosen entry by its label.
II

====

pIC50: −log10 of the molar value.
# pIC50 against MAGL (Homo sapiens), merged from multiple literature sources
PARAMETER_MEASURED: pIC50

- ENTRY_SMILES: "O=C(c1ccc2c(ccn2-c2ncccn2)c1)N1CC(N2CCN(C(=O)c3cscn3)CC2)C1"
  SYSTEM_UNDER_TEST: "MAGL (Homo sapiens)"
  pIC50: 6.82
- ENTRY_SMILES: "O=C1N[C@H](CCC(=O)N2CC(c3noc(-c4ccc(C(F)(F)F)nc4)n3)C2)CO1"
  SYSTEM_UNDER_TEST: "MAGL (Homo sapiens)"
  pIC50: 5.70

A = COc1ccc(F)c(C(=O)N2CCN3C[C@@H](c4ccc(F)c(Cl)c4)OC[C@@H]3C2)c1Cl
B = O=C(c1cccc(-c2c[nH]c(=O)o2)c1Cl)N1CCN2C[C@@H](c3ccc(Cl)c(Cl)c3)OC[C@@H]2C1
// compare measured pIC50, left A , right B , return larger Please identify the chosen entry by its label.
A
(A: 8.24, B: 7.48)

====

# IC50 against MAGL (Homo sapiens, UniProt Q99685), merged from multiple literature sources
PARAMETER_MEASURED: IC50 (nM)

- COMPOUND: "O=C(c1ccc2c(c1)[nH]c(=O)n2C1CCC(F)(F)CC1)N1CC(N2CCN(C(=O)c3cscn3)CC2)C1"
  IC50, nM: 1480

P = O=C1CO[C@H]2CCN(C(=O)N3CC(c4ccc(Oc5cncc(Cl)c5)cc4)C3)C[C@H]2N1
Q = O=C1CO[C@H]2CCN(C(=O)N3CCC(c4cn(CCO)c5ccc(Cl)cc45)CC3)C[C@@H]2N1
R = N#Cc1n[nH]cc1-c1cccc(C(=O)N2CCN3C[C@@](O)(c4ccc(C(F)(F)F)nc4)OC[C@@H]3C2)c1Cl
S = O=C1N[C@H](CCC(=O)N2CC(c3ccc(N(CC4CC4)c4ccccc4)cc3)C2)CO1
T = COc1ccc(C(c2ccc(F)cc2)C2CCN(C(=O)N3CC[C@@H]4OCC(=O)N[C@@H]4C3)CC2)cc1OC (single isomer, unassigned)
Please order the records by their reported IC50, lowest number first. // rank by listing labels in the order requested
S, T, P, R, Q
